# Tested on: LOX-IMVI cells
# PROTOCOL_DETAILS: Cell proliferation assay (alamarBlue), LOX-IMVI
# Assay type: cell-based
# CONDITION: Homo sapiens, 72 hours incubation, inhibition of cell proliferation
pIC50: −log10 of the molar value.
// F strictly below 7 in pIC50; T otherwise

COMPOUND: CNC(=O)N1N=C(c2ccc(N3CCN(C(=O)C(F)(F)F)CC3)cc2)c2cc(OC)c(OC)cc2CC1C (racemic)
CLASS: F
--
COMPOUND: CNC(=O)N1N=C(c2ccc(-n3nc(-c4ccccn4)cc3C3CC3)cc2)c2cc(OC)ccc2C[C@@H]1C
CLASS: T
--
COMPOUND: CNC(=O)N1N=C(c2ccc(N3CCC(O)CC3)cc2)c2cc(OC)c(OC)cc2C[C@@H]1C
CLASS: F
--
COMPOUND: CNC(=O)N1N=C(c2ccc(N3CCC3)cc2)c2cc(OC)c(OC)cc2C[C@@H]1C
CLASS: F
--
COMPOUND: CNC(=O)N1N=C(c2ccc(-c3c(C)noc3C)cc2)c2cc(OCCCN3CCOCC3)ccc2CC1C (racemic)
CLASS: F

* * *

# EXPERIMENTAL_SYSTEM: BRD4 (BD1) (Homo sapiens, UniProt O60885)
# Construct: with relatively long constructs also being possible, preferably amino acids 44-168
# PROTOCOL_DETAILS: Binding assay BRD4/acetylated peptide H4 (TR-FRET protein-protein interaction assay)

COMPOUND: CNC(=O)N1N=C(c2ccc(-n3nc(-c4ccccc4)cc3C)cc2)c2cc(OC)c(OC)cc2CC1C (racemic)
EXPERIMENTAL_SYSTEM: BRD4 (BD1) (Homo sapiens, UniProt O60885)
IC50: 30 nM

COMPOUND: CNC(=O)N1N=C(c2ccc(N3CCN(C)CC3)cc2)c2cc(OC(F)(F)F)ccc2C[C@H]1C
EXPERIMENTAL_SYSTEM: BRD4 (BD1) (Homo sapiens, UniProt O60885)
IC50: 9890 nM

COMPOUND: CNC(=O)N1N=C(c2ccc(N3CCN(C(C)=O)CC3)cc2)c2cc(OC)c(OC)cc2C[C@H]1C
EXPERIMENTAL_SYSTEM: BRD4 (BD1) (Homo sapiens, UniProt O60885)
IC50: 4080 nM

COMPOUND: CNC(=O)N1N=C(c2ccc(-n3nc(C)cc3C)cc2)c2cc(OC)ccc2C[C@@H]1C
EXPERIMENTAL_SYSTEM: BRD4 (BD1) (Homo sapiens, UniProt O60885)
IC50: 50 nM

COMPOUND: CNC(=O)N1N=C(c2ccc(Cl)cc2)c2ccc(N3CCS(=O)(=O)CC3)cc2CC1C (racemic)
EXPERIMENTAL_SYSTEM: BRD4 (BD1) (Homo sapiens, UniProt O60885)
IC50: 5020 nM

COMPOUND: CNC(=O)N1N=C(c2ccc(-c3ccc(Cl)cc3Cl)cc2)c2cc(OC)c(OC)cc2CC1C (racemic)
EXPERIMENTAL_SYSTEM: BRD4 (BD1) (Homo sapiens, UniProt O60885)
IC50: 570 nM

COMPOUND: CNC(=O)N1N=C(c2ccc(Cl)cc2)c2cc(N3CCOCC3)ccc2CC1C (racemic)
EXPERIMENTAL_SYSTEM: BRD4 (BD1) (Homo sapiens, UniProt O60885)
IC50: 310 nM
